tgt: Glucocorticoid receptor (Homo sapiens, UniProt P04150)
assay-overview: Agonist activity at glucocorticoid receptor in human A549 cells assessed as inhibition of IL-1beta-induced NF-kappaB dependent E-selectin activation by luciferase reporter gene assay
Format: cell-based
Reported values of EC50 for individual entries
Return type: number; implicit unit nM.

COc1ccc(-n2ncc3cc(C(c4ccccc4)C(C)(C)C(=O)Nc4nncs4)ccc32)cc1 (racemic) ... 143
CC(C)(C(=O)Nc1nccs1)[C@@H](c1ccccc1)c1ccc2c(cnn2-c2ccc(F)cc2)c1 ... 0.5
CC(C)Cn1ncc2cc(C(c3ccccc3)C(C)(C)C(=O)Nc3nncs3)ccc21 (racemic) ... 1820

Entry CC(C)(C(=O)Nc1nncs1)C(c1ccccc1)c1ccc2c(cnn2CCO)c1 (racemic) needs its EC50 filled in; supply it. 1050

* * *

tgt: Glucocorticoid receptor (Homo sapiens) (UniProt P04150)
assay-overview: Agonist activity at glucocorticoid receptor in human A549 cells assessed as inhibition of PMA-induced AP-1 activation by luciferase reporter gene assay relative to dexamethasone
Type: cell-based
Threshold-based label: Efficacy under 70% gives 1, Efficacy not under 70% gives -1.

The following molecules have reported results that may help.
CC(C)(Cc1ccc2c(cnn2-c2ccc(F)cc2)c1)C(=O)Nc1nncs1 ... 1
CC(C(=O)Nc1nncs1)C(c1ccccc1)c1ccc2c(cnn2-c2ccc(F)cc2)c1 (single isomer, unassigned; diastereomer 4) ... -1
CC(C)(C(=O)Nc1nncs1)C(c1ccccc1)c1ccc2c(cnn2C2CCCCCC2)c1 (racemic) ... -1
CC(C)(C(=O)Nc1nccs1)C(c1ccccc1)c1ccc2c(cnn2-c2ccc(F)cc2)c1 (racemic) ... -1

In plain terms, does CC(C)(C(=O)Nc1nncs1)C(c1ccccc1)c1ccc2c(cnn2-c2ccc(F)cc2)c1 (racemic) come in under 70% for Efficacy? -1

Determine if CC(C)(C(=O)Nc1nccs1)C(c1ccncc1)c1ccc2c(cnn2-c2ccc(F)cc2)c1 (racemic) shows Efficacy strictly lower than 70%. 1

Does this molecule meet the criterion Efficacy < 70%? Cc1csc(NC(=O)C(C)(C)C(c2ccccc2)c2ccc3c(cnn3-c3ccc(F)cc3)c2)n1 (racemic) -1

Hello, I'm reviewing records and need to know if Efficacy of CC(C)(C(=O)Nn1nccn1)C(c1ccccc1)c1ccc2c(cnn2-c2ccc(F)cc2)c1 (racemic) is below 70%. Could you check? -1

* * *

tgt: Glucocorticoid receptor (Homo sapiens) (UniProt P04150)
Sequence (whole entry): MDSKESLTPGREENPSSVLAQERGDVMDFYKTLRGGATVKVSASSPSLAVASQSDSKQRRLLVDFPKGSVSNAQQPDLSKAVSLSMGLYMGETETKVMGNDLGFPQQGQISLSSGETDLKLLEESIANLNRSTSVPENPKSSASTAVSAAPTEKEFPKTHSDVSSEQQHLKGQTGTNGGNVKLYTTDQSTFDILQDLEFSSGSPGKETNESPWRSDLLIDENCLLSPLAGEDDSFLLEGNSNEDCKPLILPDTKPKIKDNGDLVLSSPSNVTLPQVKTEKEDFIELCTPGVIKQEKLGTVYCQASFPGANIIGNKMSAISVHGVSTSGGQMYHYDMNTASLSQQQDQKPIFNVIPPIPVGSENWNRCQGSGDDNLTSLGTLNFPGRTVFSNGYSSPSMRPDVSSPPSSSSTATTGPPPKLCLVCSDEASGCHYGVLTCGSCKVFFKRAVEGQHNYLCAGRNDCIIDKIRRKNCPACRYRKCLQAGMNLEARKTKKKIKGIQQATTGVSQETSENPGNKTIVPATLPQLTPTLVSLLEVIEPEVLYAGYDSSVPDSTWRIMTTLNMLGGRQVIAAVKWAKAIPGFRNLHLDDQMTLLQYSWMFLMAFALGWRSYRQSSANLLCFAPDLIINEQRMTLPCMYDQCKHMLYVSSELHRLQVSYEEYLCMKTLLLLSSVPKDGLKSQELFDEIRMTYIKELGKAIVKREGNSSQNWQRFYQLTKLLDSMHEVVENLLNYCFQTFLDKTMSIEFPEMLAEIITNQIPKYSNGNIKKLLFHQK
assay-overview: Agonist activity at glucocorticoid receptor in human A549 cells assessed as inhibition of PMA-induced AP-1 activation by luciferase reporter gene assay relative to dexamethasone
Type: cell-based
Checkbox rule: Efficacy lower than 60% = Satisfied; Efficacy not lower than 60% = Not satisfied.

CC(C)n1ncc2cc(C(c3ccccc3)C(C)(C)C(=O)Nc3nncs3)ccc21 (racemic) ... Not satisfied
CC(C)(C(=O)Nc1nccs1)C(c1ccc2c(cnn2-c2ccc(F)cc2)c1)C1CCCCC1 (racemic) ... Satisfied
COc1cccc(-n2ncc3cc(C(c4ccccc4)C(C)(C)C(=O)Nc4nncs4)ccc32)c1 (racemic) ... Satisfied

In plain terms, does CC(C)CCn1ncc2cc(C(c3ccccc3)C(C)(C)C(=O)Nc3nncs3)ccc21 (racemic) come in under 60% for Efficacy? Not satisfied
